// provenance: patent US8022206B2

- Test Target: RON (human) (Homo sapiens)
- Sequence (Q04912 25-1400): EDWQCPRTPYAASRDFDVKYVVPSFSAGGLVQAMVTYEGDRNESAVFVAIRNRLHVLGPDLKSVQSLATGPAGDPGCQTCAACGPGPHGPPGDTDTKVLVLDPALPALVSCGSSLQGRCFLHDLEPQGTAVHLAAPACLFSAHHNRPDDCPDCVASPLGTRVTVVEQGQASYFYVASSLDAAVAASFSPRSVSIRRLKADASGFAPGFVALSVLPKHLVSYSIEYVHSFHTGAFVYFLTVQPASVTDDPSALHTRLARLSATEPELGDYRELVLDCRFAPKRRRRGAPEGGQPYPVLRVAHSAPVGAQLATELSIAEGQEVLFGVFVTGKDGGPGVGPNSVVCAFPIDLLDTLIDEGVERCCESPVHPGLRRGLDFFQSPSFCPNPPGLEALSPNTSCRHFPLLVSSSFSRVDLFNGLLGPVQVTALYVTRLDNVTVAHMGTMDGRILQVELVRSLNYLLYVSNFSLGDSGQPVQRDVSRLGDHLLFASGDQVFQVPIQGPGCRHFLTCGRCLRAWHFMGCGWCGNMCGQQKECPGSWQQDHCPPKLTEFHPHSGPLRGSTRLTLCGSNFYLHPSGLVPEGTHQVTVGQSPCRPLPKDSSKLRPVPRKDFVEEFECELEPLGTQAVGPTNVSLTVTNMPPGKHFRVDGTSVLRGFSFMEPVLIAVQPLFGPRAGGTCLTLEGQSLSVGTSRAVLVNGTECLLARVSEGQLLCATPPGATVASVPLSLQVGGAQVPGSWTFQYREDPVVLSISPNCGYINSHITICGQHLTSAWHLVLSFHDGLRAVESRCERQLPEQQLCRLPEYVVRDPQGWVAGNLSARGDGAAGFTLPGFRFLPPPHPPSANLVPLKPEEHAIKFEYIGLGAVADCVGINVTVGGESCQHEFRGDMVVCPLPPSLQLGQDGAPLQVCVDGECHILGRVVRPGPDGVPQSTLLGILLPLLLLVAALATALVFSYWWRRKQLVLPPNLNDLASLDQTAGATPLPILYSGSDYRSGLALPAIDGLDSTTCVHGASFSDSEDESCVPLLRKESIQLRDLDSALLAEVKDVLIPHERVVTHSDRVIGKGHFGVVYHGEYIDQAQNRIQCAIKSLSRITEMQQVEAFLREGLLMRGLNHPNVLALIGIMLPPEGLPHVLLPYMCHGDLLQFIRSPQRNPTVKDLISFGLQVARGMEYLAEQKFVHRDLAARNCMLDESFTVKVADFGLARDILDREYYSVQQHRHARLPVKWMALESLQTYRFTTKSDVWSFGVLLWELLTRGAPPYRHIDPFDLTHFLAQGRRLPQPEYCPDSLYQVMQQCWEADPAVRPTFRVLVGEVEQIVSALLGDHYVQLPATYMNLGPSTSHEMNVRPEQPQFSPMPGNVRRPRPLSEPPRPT
- Assay Name: RON (human) AlphaScreen kinase assay, Km of ATP
- Type: biochemical
- Condition Notes: AlphaScreen, Km of ATP; read-out: RON biochemical IC50

{"Compound": "C[C@H](Oc1c(N)ncc2ccoc12)c1nnc2ccc(-c3cnn(C)c3)nn12 [Example 474]", "IC50": "> 20 µM"}
{"Compound": "C[C@@H](Oc1c(N)ncc2c(-c3ccccc3)coc12)c1c(Cl)ccc(F)c1Cl [Example 3]", "IC50": "0.5 to 5 µM"}
{"Compound": "CC(Oc1c(N)ncc2c(-c3cnn(C4CCNCC4)c3)coc12)c1c(Cl)cccc1C(F)(F)F (stereo not shown) [Example 365]", "IC50": "0.5 to 5 µM"}
{"Compound": "CNC(=O)N1CC=C(c2coc3c(O[C@H](C)c4c(Cl)ccc(F)c4Cl)c(N)ncc23)CC1 [Example 35]", "IC50": "0.5 to 5 µM"}
{"Compound": "C[C@@H](Oc1c(N)ncc2c(C3CCNCC3)coc12)c1c(Cl)ccc(F)c1Cl [Example 25]", "IC50": "0.5 to 5 µM"}
{"Compound": "Nc1ncc2c(-c3cnn(C4CCNCC4)c3)coc2c1OC/C=C/c1c(Cl)ccc(F)c1Cl [Example 356]", "IC50": "< 0.5 µM"}
{"Compound": "C[C@@H](Oc1c(N)ncc2c(-c3cnn(C4CCNCC4)c3)c(C#CCN)oc12)c1c(Cl)ccc(F)c1Cl [Example 173]", "IC50": "< 0.5 µM"}
{"Compound": "C[C@@H](Oc1c(N)ncc2c(-c3cc(C(N)=O)cs3)coc12)c1c(Cl)ccc(F)c1Cl [Example 326]", "IC50": "5 to 20 µM"}
{"Compound": "CC(C)NC(=O)c1csc(-c2coc3c(O[C@H](C)c4c(Cl)ccc(F)c4Cl)c(N)ncc23)c1 [Example 330]", "IC50": "5 to 20 µM"}
{"Compound": "C[C@@H](Oc1c(N)ncc2c(C3=CCN(C(=O)C4(O)CC4)CC3)coc12)c1c(Cl)ccc(F)c1Cl [Example 19]", "IC50": "0.5 to 5 µM"}
{"Compound": "C[C@@H](Oc1c(N)ncc2c(-c3cnc(N4CCN(C)CC4)nc3)coc12)c1c(Cl)ccc(F)c1Cl [Example 123]", "IC50": "0.5 to 5 µM"}
{"Compound": "C[C@@H](Oc1c(N)ncc2c(-c3ccncc3)coc12)c1c(Cl)ccc(F)c1Cl [Example 127]", "IC50": "0.5 to 5 µM"}
{"Compound": "CC(Oc1c(N)ncc2c(-c3cnn(C4CCNCC4)c3)coc12)c1cc(F)cc(Br)c1 (stereo not shown) [Example 434]", "IC50": "< 0.5 µM"}
{"Compound": "CC(Cc1ccccc1F)Oc1c(N)ncc2c(-c3cnn(C4CCNCC4)c3)coc12 (stereo not shown) [Example 423]", "IC50": "0.5 to 5 µM"}
{"Compound": "CNc1ncc2c(C3=CCN(C)CC3)coc2c1O[C@H](C)c1c(Cl)ccc(F)c1Cl [Example 36]", "IC50": "< 0.5 µM"}
{"Compound": "C[C@H](Cc1ccccc1)Oc1c(N)ncc2c(-c3cnn(C4CCNCC4)c3)coc12 [Example 415]", "IC50": "0.5 to 5 µM"}
